Entry source: patent US9730944B2

# assay.protocol: Cytotoxicity in RD cells (enterovirus methodology)
# experimental.parameters: human
endpoint: CC50 (µg/mL)
Please reply with the bare figure in µg/mL and do not write the unit itself.

Input: Consider the compound shown here: Nc1nc(N2CCN(C(=O)COc3ccc(Cl)cc3)CC2)c2nc(-c3ccc(F)cc3)sc2n1 What is its recorded CC50?
Output: 27.8

----------
# assay.protocol: in vitro
# experimental.parameters: human
// classify: if (CC50 < 30 µM) true (1) else false (0)

Please review the entries below; each comes with its answer.
compound	assigned.label
Cc1ccc(NC(=O)N2CCN(c3nc(N)nc4sc(-c5ccc(F)cc5)nc34)CC2)cc1	true (1)
Nc1nc(N2CCOCC2)c2nc(-c3ccc(F)cc3)sc2n1	false (0)
Nc1nc(N2CCN(C(=O)COc3ccc(Cl)cc3)CC2)c2nc(CCc3ccc(F)cc3)oc2n1	false (0)
Nc1nc(N2CCN(CC(=O)N3CCOCC3)CC2)c2nc(-c3ccc(F)cc3)sc2n1	false (0)
Cc1cccc(N2CCN(c3nc(N)nc4sc(-c5ccc(F)cc5)nc34)CC2)c1	false (0)
Cc1cccc(NC(=O)N2CCN(c3nc(C(N)=O)nc4sc(-c5ccc(F)cc5)cc34)CC2)c1	false (0)

Input: Is 30 µM strictly greater than the compound's reported CC50? compound: Nc1nc(N2CCNCC2)c2nc(-c3ccc(F)cc3)sc2n1
Output: true (1)

Input: Also Nc1nc(N2CCN(C(=O)COc3ccc(Cl)cc3)CC2)c2nc(C(Cc3ccccc3)c3ccc(F)cc3)sc2n1 (centres unmarked) ?
Output: false (0)

----------
# Test system: HIV-2 strain (ROD)
# assay.protocol: Inhibition of replication of HIV-2 (ROD strain) in MT-4 cells, MTT assay
# Assay type: cell-based
# experimental.parameters: Human immunodeficiency virus 2, MT4, 120 h; MT-4 cells, MTT assay, five days after infection, 50% protection from cytopathic effect; read-out: EC50 (μM) HIV-2 (ROD)
Collected EC50 values appear next to each entry.

Some solved cases for reference:
chem.smiles	EC50
CCOC(=O)Cc1nc(N2CCN(C(=O)COc3ccc(Cl)cc3)CC2)c2cc(-c3ccc(F)cc3)sc2n1	> 159 µM
COCCOc1nc(N)nc2sc(-c3ccc(F)cc3)nc12	220 µM
COCCNC(=O)c1nc(N2CCN(C(=O)COc3ccc(Cl)cc3)CC2)c2cc(-c3ccc(F)cc3)sc2n1	> 155 µM
Nc1nc(N2CCN(Cc3ccccc3)CC2)c2nc(-c3ccc(F)cc3)sc2n1	> 45.2 µM
Cc1cccc(N2CCN(c3nc(N)nc4sc(-c5ccc(F)cc5)nc34)CC2)c1	> 38.5 µM
CSc1nc(N)nc2sc(-c3ccc(F)cc3)nc12	> 82.1 µM
Nc1nc(N2CCN(C(=O)COc3ccc(Cl)cc3)CC2)c2nc(CCc3ccc(F)cc3)sc2n1	> 7.06 µM

Attention now shifts to the item below.
Input: Consider the compound shown here: Nc1nc(N2CCN(C(=O)COc3ccc(Cl)cc3)CC2)c2nc(CCOc3ccc(F)cc3)sc2n1 What is its recorded EC50?
Output: 5.12 µM

----------
# System: hRV-29
# assay.protocol: Rhinovirus type 29 antiviral assay in Hela Rh cells, MTS readout
# Assay type: cell-based
# experimental.parameters: Human rhinovirus sp., HRV29, HeLa Rh, Hela Rh cells; read-out: hRV-29 EC50
Collected EC50 values appear next to each entry.
Please reply with the bare figure in µg/mL and do not write the unit itself.

Some solved cases for reference:
chem.smiles	EC50 [µg/mL]
CC(C)(C)OC(=O)N[C@@H]1CCN(c2nc(N)nc3sc(-c4ccc(F)cc4)cc23)C1	0.39
COc1ccc(CCc2nc3c(N4CCN(C(=O)COc5ccc(Br)cc5)CC4)nc(N)nc3s2)cc1OC	4.06
COc1ccc(OCC(=O)N2CCN(c3nc(N)nc4sc(CCc5ccc(Br)cc5)nc34)CC2)cc1	0.89
COc1ccc(OCC(=O)N2CCN(c3nc(N)nc4sc(CCc5ccc(OC)c(OC)c5)nc34)CC2)cc1	14.9
COc1cccc(CCc2nc3c(N4CCN(C(=O)COc5ccc(Br)cc5)CC4)nc(N)nc3s2)c1	1.27
CCCCCc1nc2c(N3CCN(C(=O)COc4ccc(Cl)cc4)CC3)nc(N)nc2s1	0.13

Input: Fill in the recorded EC50 for this molecule, with hRV-29 as test system: CCCCCc1nc2c(N3CCN(C(=O)COc4ccc(OC)cc4)CC3)nc(N)nc2s1
Output: 0.09

Input: Also CC(=O)c1ccc(OCC(=O)N2CCN(c3nc(N)nc4sc(CCc5ccc(F)cc5)nc34)CC2)cc1 ?
Output: 4.8

----------
# System: poliovirus (PV type 3)
# assay.protocol: microbe, parasite or virus in culture
# Format: cell-based
# experimental.parameters: Enterovirus C, Vero, read-out: PV-3 EC50
Collected EC50 values appear next to each entry.

Some solved cases for reference:
compound	subject.of.test	EC50
Nc1nc(N2CCN(C(=O)COc3ccc(Br)cc3)CC2)c2nc(CCc3ccc(F)cc3)sc2n1 [Example 52]	poliovirus (PV type 3)	0.49 µg/mL
Nc1nc(N2CCN(C(=O)COc3ccc(Cl)cc3)CC2)c2nc(CCc3ccccc3)oc2n1 [Example 189]	poliovirus (PV type 3)	1.19 µg/mL
Cc1nc(N2CCN(C(=O)COc3ccc(Cl)cc3)CC2)c2nc(Cc3ccc(F)cc3)oc2n1 [Example 171]	poliovirus (PV type 3)	> 50 µg/mL

Input: Consider the compound shown here: O=C(COc1ccc(Cl)cc1)N1CCN(c2nc(-c3ccccc3)nc3sc(-c4ccc(F)cc4)cc23)CC1 [Example 352] What is its recorded EC50?
Output: > 50 µg/mL

Input: Also COc1ccc(OCC(=O)N2CCN(c3ncnc4sc(CCc5ccc(F)cc5)nc34)CC2)cc1 [Example 302] ?
Output: 0.085 µg/mL

Input: Also Nc1nc(N2CCN(C(=O)COc3ccc(Cl)cc3)CC2)c2nc(C3CC3)sc2n1 [Example 119] ?
Output: 12.5 µg/mL

Input: Also CCOC(=O)c1nc(N2CCN(C(=O)Nc3cccc(C)c3)CC2)c2cc(-c3ccc(F)cc3)sc2n1 [Example 361] ?
Output: > 50 µg/mL

Input: Also Cc1nc(N2CCN(C(=O)COc3ccc(Cl)cc3)CC2)c2cc(-c3ccc(F)cc3)sc2n1 [Example 325] ?
Output: > 50 µg/mL

Input: Also Cc1nc(N2CCN(C(=O)COc3ccc(Cl)cc3)CC2)c2nc(-c3ccc(F)cc3)oc2n1 [Example 168] ?
Output: > 50 µg/mL

Input: Also CCCCc1nc(N2CCN(C(=O)COc3ccc(Cl)cc3)CC2)c2cc(-c3ccc(F)cc3)sc2n1 [Example 313] ?
Output: > 50 µg/mL

----------
# System: hRV-29
# assay.protocol: Rhinovirus type 29 antiviral assay in Hela Rh cells, MTS readout
# Type: cell-based
# experimental.parameters: Human rhinovirus sp., HRV29, HeLa Rh, Hela Rh cells; read-out: hRV-29 EC50
Collected EC50 values appear next to each entry.
Please reply with the bare figure in µg/mL and do not write the unit itself.

molecule	unit.descriptor	value.observed
COc1ccc(OCC(=O)N2CCN(c3nc(N)nc4sc(-c5ccc(F)cc5)nc34)CC2)cc1 [Example 234]	µg/mL	0.04

Input: Consider the molecule shown here: COc1cccc(CCc2nc3c(N4CCN(C(=O)COc5ccc(Cl)cc5)CC4)nc(N)nc3s2)c1 [Example 255] What is its recorded EC50?
Output: 0.6

----------
# assay.protocol: Cytostatic/cytotoxic effect in Hela Rh cells (rhinovirus methodology, MTS)
# experimental.parameters: human, CC50, Hela Rh cells
endpoint: CC50

Some solved cases for reference:
chem.smiles	CC50
Cc1ccc(CCc2nc3c(N4CCN(C(=O)COc5ccc(Cl)cc5)CC4)nc(N)nc3s2)cc1	> 50 µg/mL
COC(=O)c1ccc(OCC(=O)N2CCN(c3nc(N)nc4sc(CCc5ccc(F)cc5)nc34)CC2)cc1	5.34 µg/mL
COc1ccc(OCC(=O)N2CCN(c3nc(N)nc4sc(Cc5ccc(F)cc5)nc34)CC2)cc1	> 50 µg/mL

Input: Consider the compound shown here: COc1ccc(OCC(=O)N2CCN(c3nc(N)nc4sc(CCCCc5ccc(F)cc5)nc34)CC2)cc1 What is its recorded CC50?
Output: > 50 µg/mL

----------
Collected CC50 values appear next to each entry.
# assay.protocol: in vitro
# experimental.parameters: human, PV CC50

Some solved cases for reference:
molecule	CC50
O=C(COc1ccc(Cl)cc1)N1CCN(c2ncnc3oc(-c4ccc(F)cc4)nc23)CC1 [Example 167]	> 50 µg/mL
Nc1nc(N2CCN(C(=O)COc3ccc(Cl)cc3)CC2)c2nc(-c3ccc(F)cc3)sc2n1 [Example 45]	> 50 µg/mL
Nc1nc(N2CCN(C(=O)COc3ccc(Cl)cc3)CC2)c2nc(CCc3ccccc3)oc2n1 [Example 189]	> 50 µg/mL
O=C(O)c1nc(N2CCN(C(=O)COc3ccc(Cl)cc3)CC2)c2cc(-c3ccc(F)cc3)sc2n1 [Example 357]	> 50 µg/mL

Input: Consider the molecule shown here: Nc1nc(N2CCN(C(=O)COc3ccc(Cl)cc3)CC2)c2nc(C3CC3)sc2n1 [Example 119] What is its recorded CC50?
Output: > 50 µg/mL

Input: Also CCOC(=O)c1nc(N2CCN(C(=O)Nc3cccc(C)c3)CC2)c2cc(-c3ccc(F)cc3)sc2n1 [Example 361] ?
Output: > 50 µg/mL

Input: Also O=C(COc1ccc(Cl)cc1)N1CCN(c2ncnc3oc(Cc4ccc(F)cc4)nc23)CC1 [Example 170] ?
Output: > 50 µg/mL

Input: Also Nc1nc(N2CCN(C(=O)COc3ccc(Cl)cc3)CC2)c2nc(CCc3ccc(F)cc3)oc2n1 [Example 172] ?
Output: > 50 µg/mL

Input: Also CC(C)S(=O)(=O)n1c(N)nc2ccc(/C(=N/O)c3ccccc3)cc21 [Enviroxime] ?
Output: 21.2 µg/mL

Input: Also Nc1nc(N2CCN(C(=O)COc3ccc(Cl)cc3Cl)CC2)c2nc(CCc3ccc(F)cc3)sc2n1 [Example 54] ?
Output: > 50 µg/mL

Input: Also CCOC(=O)c1nc(N2CCN(C(=O)COc3ccc(Cl)cc3)CC2)c2cc(-c3ccc(F)cc3)sc2n1 [Example 353] ?
Output: 41.3 µg/mL

Input: Also NC(=O)c1nc(N2CCN(C(=O)COc3ccc(Cl)cc3)CC2)c2cc(-c3ccc(F)cc3)sc2n1 [Example 355] ?
Output: > 50 µg/mL

Input: Also Nc1nc(N2CCN(C(=O)COc3ccc(Cl)cc3)CC2)c2cc(-c3ccc(F)cc3)sc2n1 [Example 326] ?
Output: 35.2 µg/mL

Input: Also Nc1nc(N2CCN(C(=O)COc3ccc(Cl)cc3)CC2)c2nc(CCc3ccc(F)cc3)sc2n1 [Example 49] ?
Output: > 50 µg/mL

Input: Also CC(c1ccc(F)cc1)c1nc2c(N3CCN(C(=O)COc4ccc(Cl)cc4)CC3)nc(N)nc2s1 (stereo not shown) [Example 66] ?
Output: > 50 µg/mL

Input: Also Cc1nc(N2CCN(C(=O)COc3ccc(Cl)cc3)CC2)c2nc(-c3ccc(F)cc3)sc2n1 [Example 47] ?
Output: > 50 µg/mL
